Molecular target: T1, Human CD3eg linker (human)
T1 construct: Single chain: epsilon and gamma subunits of human CD3 joined by a 29-mer linker, Flag-tag at the C-terminus; also called recombinant human CD3
T1 chain: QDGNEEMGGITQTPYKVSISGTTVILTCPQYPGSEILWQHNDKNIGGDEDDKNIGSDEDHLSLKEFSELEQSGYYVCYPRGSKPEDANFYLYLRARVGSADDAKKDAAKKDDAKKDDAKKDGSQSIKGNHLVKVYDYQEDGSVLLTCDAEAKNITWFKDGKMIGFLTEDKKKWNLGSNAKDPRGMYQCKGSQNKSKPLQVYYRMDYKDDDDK
Assay: Biacore SPR, vs template H183/L072
measured_property: fold change of affinity

Reported fold change of affinity for H183/L072 VH P61I (antibody, name in Kabat numbering, V domains shown) VH: QVQLVESGGGLVQPGRSLRLSCAASGFTFSNAWMHWVRQAPGKGLEWVAQIKDKGNAYAAYYAISVKGRFTISRDDSKNSIYLQMNSLKTEDTAVYYCHYVHYASASTVLPAFGVDAWGQGTTVTVSS VL: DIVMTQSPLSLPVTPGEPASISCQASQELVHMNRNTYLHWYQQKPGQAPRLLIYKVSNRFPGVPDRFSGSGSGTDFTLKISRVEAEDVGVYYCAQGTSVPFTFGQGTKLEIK : what is it? 1.8 fold

Reported fold change of affinity for H183/L072 VH M34L (antibody, name in Kabat numbering, V domains shown) VH: QVQLVESGGGLVQPGRSLRLSCAASGFTFSNAWLHWVRQAPGKGLEWVAQIKDKGNAYAAYYAPSVKGRFTISRDDSKNSIYLQMNSLKTEDTAVYYCHYVHYASASTVLPAFGVDAWGQGTTVTVSS VL: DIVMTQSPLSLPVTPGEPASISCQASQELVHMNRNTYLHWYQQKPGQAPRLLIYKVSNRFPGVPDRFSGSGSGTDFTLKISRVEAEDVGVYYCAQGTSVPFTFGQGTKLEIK : what is it? 0.7 fold

Reported fold change of affinity for H183/L072 VH N31Q (antibody, name in Kabat numbering, V domains shown) VH: QVQLVESGGGLVQPGRSLRLSCAASGFTFSQAWMHWVRQAPGKGLEWVAQIKDKGNAYAAYYAPSVKGRFTISRDDSKNSIYLQMNSLKTEDTAVYYCHYVHYASASTVLPAFGVDAWGQGTTVTVSS VL: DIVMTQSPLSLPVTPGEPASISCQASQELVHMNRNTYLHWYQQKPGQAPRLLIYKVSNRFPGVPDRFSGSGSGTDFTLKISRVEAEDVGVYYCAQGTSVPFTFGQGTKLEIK : what is it? 0.2 fold

Reported fold change of affinity for H183/L072 VH K52bW (antibody, name in Kabat numbering, V domains shown) VH: QVQLVESGGGLVQPGRSLRLSCAASGFTFSNAWMHWVRQAPGKGLEWVAQIKDWGNAYAAYYAPSVKGRFTISRDDSKNSIYLQMNSLKTEDTAVYYCHYVHYASASTVLPAFGVDAWGQGTTVTVSS VL: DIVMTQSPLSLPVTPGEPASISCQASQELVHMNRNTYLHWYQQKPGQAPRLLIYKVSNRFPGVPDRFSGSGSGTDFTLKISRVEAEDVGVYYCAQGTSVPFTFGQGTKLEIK : what is it? 0.6 fold

Where do these numbers come from? They come from patent US20210388087A1.
